Value source: PubChem BioAssay (NCI)

- System: COLO 205 colon
- assay: NCI-60 one-dose screen, 48 h
- settings: 10 µM unless noted
About 83,000 compounds went through this panel and 20% of them were active in at least one assay; those are over-represented in the sample as a whole. Calls of active or inactive are those of the source. How the source made its calls: active means growth percent below 10; inactive means the rest.
Classes used: active, inactive

>  <molecule>
Cc1ccc(C2CC3c4ccccc4C2C2CCCCN32)cc1 (configuration not stated)

>  <class_assignment>
inactive

$$$$
>  <molecule>
CC(=O)N1CC(Nc2ccc(OC(F)(F)F)cc2)=CC1=O

>  <class_assignment>
active

$$$$
>  <molecule>
CC[C@H](Nc1cc(C)nc(N)n1)c1nc2cccc(NCc3ccc(C(=O)NO)cc3)c2c(=O)n1-c1ccccc1

>  <class_assignment>
active

$$$$
>  <molecule>
Cl/C(=N\Nc1ccccc1)c1ccccc1

>  <class_assignment>
inactive

$$$$
>  <molecule>
CCC(=O)OCc1cccc(OC)c1

>  <class_assignment>
inactive

$$$$
>  <molecule>
CCCCCCCCCCCCN1CCCC(C)C1 (configuration not stated)

>  <class_assignment>
inactive

$$$$
>  <molecule>
O=S(=O)(Nc1ccc(Cl)cc1Cl)c1ccc(-c2cnc(C3CC3)o2)cc1

>  <class_assignment>
active

$$$$
>  <molecule>
COc1ccc(S(=O)(=O)NCCCNc2nccc(-c3c(-c4cccc(N)c4)nc4sccn34)n2)cc1

>  <class_assignment>
inactive

$$$$
>  <molecule>
COc1c(C2CC(=O)Nc3c2cnn3Cc2ccco2)cc2c(c1OC)OCO2 (configuration not stated)

>  <class_assignment>
active

$$$$
>  <molecule>
Cc1nc2nc(N)nc(N)c2nc1C

>  <class_assignment>
inactive

$$$$
>  <molecule>
CS(CCCCN=C=S)=NC(=O)c1c(F)c(F)c(F)c(F)c1F (configuration not stated)

>  <class_assignment>
inactive

$$$$
>  <molecule>
Cc1ccc(S(=O)(=O)N(CCc2ccc(Cl)cc2)S(=O)(=O)c2ccc(C)cc2)cc1

>  <class_assignment>
inactive

$$$$

---

- System: RPMI-8226 leukemia
- assay: NCI-60 one-dose screen, 48 h
- settings: 10 µM unless noted
This is part of a sample that, as a whole, favours compounds with a hit. Of some 83,000 tested, about 20% had one in any assay. Calls of active or inactive are those of the source. How the source made its calls: active means growth percent below 10; inactive means the rest.
Classes used: active, inactive

>  <compound>
O=C1C(=O)N(CCCCn2cc(CO)nn2)c2ccccc21

>  <experimental_target>
RPMI-8226 leukemia

>  <class_assignment>
inactive

$$$$
>  <compound>
C[C@H](CCC(=O)O)[C@H]1CC[C@H]2[C@@H]3CC[C@@H]4/C(=C\c5ccco5)C(=O)/C(=C\c5ccco5)C[C@]4(C)[C@H]3CC[C@]12C

>  <experimental_target>
RPMI-8226 leukemia

>  <class_assignment>
active

$$$$
>  <compound>
COc1ccc2nc3cc(Cl)ccc3c(N3CCN(c4ccnc(N5CCOCC5)n4)CC3)c2c1

>  <experimental_target>
RPMI-8226 leukemia

>  <class_assignment>
inactive

$$$$
>  <compound>
COc1ccc(S(=O)(=O)NCCCNc2cc(-c3c(-c4cccc(OC)c4)nc4sccn34)ccn2)cc1

>  <experimental_target>
RPMI-8226 leukemia

>  <class_assignment>
inactive

$$$$
>  <compound>
CCCCCCCCCCCCS(=O)CC(C)O (stereo not given)

>  <experimental_target>
RPMI-8226 leukemia

>  <class_assignment>
inactive

$$$$
>  <compound>
CC[n+]1ccc2c(c1)C(=O)c1nccc3c1c-2nc1ccccc13

>  <experimental_target>
RPMI-8226 leukemia

>  <class_assignment>
inactive

$$$$
>  <compound>
O=C(/C=C/c1cccc(Br)c1)c1ccccc1

>  <experimental_target>
RPMI-8226 leukemia

>  <class_assignment>
inactive

$$$$
>  <compound>
CN1CCOCCOCCOc2ccccc2NC(=O)c2nc(cnc2N)-c2ccc(cc2)S1(=O)=O

>  <experimental_target>
RPMI-8226 leukemia

>  <class_assignment>
inactive

$$$$
>  <compound>
COc1ccc(C/C(C)=C(\c2ccc(OCCN3CCCCCC3)cc2)c2ccc(OC(=O)C3CCCCC3)cc2)cc1

>  <experimental_target>
RPMI-8226 leukemia

>  <class_assignment>
inactive

$$$$
>  <compound>
Oc1ccccc1N=Cc1c(O)ccc2ccccc12

>  <experimental_target>
RPMI-8226 leukemia

>  <class_assignment>
inactive

$$$$
>  <compound>
Brc1cccc(-c2nc(-c3ccc4c(c3)OCCO4)co2)c1

>  <experimental_target>
RPMI-8226 leukemia

>  <class_assignment>
inactive

$$$$
>  <compound>
CCN(C(=O)CN1CCN(c2cc3c(cc2F)c(=O)c(C(=O)O)cn3CC)CC1)c1nc(-c2ccccc2)cs1

>  <experimental_target>
RPMI-8226 leukemia

>  <class_assignment>
active

$$$$
>  <compound>
CNC(=O)c1cc(Oc2ccc3nc(NC(=O)Nc4ccc(CN5CCOCC5)c(C(F)(F)F)c4)sc3c2)ccn1

>  <experimental_target>
RPMI-8226 leukemia

>  <class_assignment>
active

$$$$
>  <compound>
CN1CCN(Cc2ccc(NC(=O)c3cncc(C#Cc4cnc(N)c5cccnc45)c3)cc2C(F)(F)F)CC1

>  <experimental_target>
RPMI-8226 leukemia

>  <class_assignment>
inactive

$$$$
>  <compound>
CC(C)c1c(C(=O)Nc2ccccc2)c(-c2ccccc2)c(-c2ccc(F)cc2)n1CC[C@@H]1CC=CC(=O)O1

>  <experimental_target>
RPMI-8226 leukemia

>  <class_assignment>
active

$$$$
>  <compound>
CCN(CC)c1ccc(/C=C/C2=[N+](C)c3ccccc3C2(C)C)cc1

>  <experimental_target>
RPMI-8226 leukemia

>  <class_assignment>
active

$$$$
>  <compound>
NC(N)=Nc1ccc(S(=O)(=O)O)cc1

>  <experimental_target>
RPMI-8226 leukemia

>  <class_assignment>
inactive

$$$$
>  <compound>
COc1nc2c(cc1S(=O)(=O)c1ccccc1)CCc1c-2cnn1Cc1ccccc1

>  <experimental_target>
RPMI-8226 leukemia

>  <class_assignment>
inactive

$$$$
>  <compound>
O=S(=O)(Nc1ccc(F)c(Cl)c1)c1ccc(-c2cnc(C3CC3)o2)cc1

>  <experimental_target>
RPMI-8226 leukemia

>  <class_assignment>
inactive

$$$$
>  <compound>
OC(c1cccc(C(F)(F)F)c1)c1cnccc1NC1CCCCCC1 (stereo not given)

>  <experimental_target>
RPMI-8226 leukemia

>  <class_assignment>
active

$$$$

---

- System: CCRF-CEM leukemia
- assay: NCI-60 one-dose screen, 48 h
- settings: 10 µM unless noted
Compounds without any hit were thinned out: in the full panel of roughly 83,000, 20% have a hit. The source made the active and inactive calls. Rule for the calls: active = growth percent below 10; inactive = the rest.
Classes used: active, inactive

>  <molecule>
O=C(Cc1ccccc1)c1ccc(Cl)cc1

>  <class_assignment>
inactive

$$$$
>  <molecule>
CCOC(=O)C(CC)n1c(=O)c2cc(OC)c(OC)cc2c2cnc3[nH]ccc3c21 (stereo not given)

>  <class_assignment>
inactive

$$$$
>  <molecule>
Cc1ccc(NC(=O)c2sc3nc4c(cc3c2N)C(=O)CCC4)cc1C

>  <class_assignment>
inactive

$$$$
>  <molecule>
O=C(NC(Cc1ccccc1)C(=O)CCl)OCc1ccccc1 (stereo not given)

>  <class_assignment>
active

$$$$
>  <molecule>
O=[N+]([O-])c1cccc(-c2nc3sccn3c2-c2ccnc(NCCCNS(=O)(=O)c3ccc(F)cc3)n2)c1

>  <class_assignment>
active

$$$$
>  <molecule>
COc1ccc(-c2cc(C(=O)N=Nc3c(O)[nH]c4ccccc34)no2)cc1

>  <class_assignment>
inactive

$$$$
>  <molecule>
O=C1/C(=C/c2ccc(Cl)c(Cl)c2)CN(C(=O)CCN2CCC(=NO)CC2)C/C1=C\c1ccc(Cl)c(Cl)c1

>  <class_assignment>
active

$$$$
>  <molecule>
Nc1nc2ccc(-c3nc4ccc5[nH]ncc5c4c4c3CCC4)cc2s1

>  <class_assignment>
inactive

$$$$
>  <molecule>
C[C@@H]1CCC2=C(CCC[C@]2(C)C(=O)O)[C@@]1(C)CCc1ccoc1

>  <class_assignment>
inactive

$$$$
>  <molecule>
OC(c1cccc(C(F)(F)F)c1)c1cnccc1NC1CCCCCC1 (stereo not given)

>  <class_assignment>
inactive

$$$$

---

- System: HOP-62 NSCLC
- assay: NCI-60 one-dose screen, 48 h
- settings: 10 µM unless noted
This is part of a sample that, as a whole, favours compounds with a hit. Of some 83,000 tested, about 20% had one in any assay. Active and inactive are the calls of the source. How the source made its calls: active means growth percent below 10; inactive means the rest.
Classes used: yes (1) = active, no (0) = inactive

>  <compound>
O=C(/C=C/c1ccc(B(O)O)cc1)/C=C/c1ccc(B(O)O)cc1

>  <class_assignment>
no (0)

$$$$
>  <compound>
CC(=O)N1CC(Nc2ccc(OC(F)(F)F)cc2)=CC1=O

>  <class_assignment>
no (0)

$$$$
>  <compound>
CCCCN(CCCC)CCC(C)(O)c1cc2ccccc2c2ccccc12 (stereo not given)

>  <class_assignment>
no (0)

$$$$
>  <compound>
CC(=O)C1=C(O)C=C2Oc3c(C(=O)/C=C/c4cc(Cl)cc(Cl)c4)c(O)c(C)c(O)c3[C@]2(C)C1=O

>  <class_assignment>
yes (1)

$$$$
>  <compound>
Cc1ccc(Nc2nc(N)nc(Nc3ccc4ccccc4c3)n2)cc1

>  <class_assignment>
no (0)

$$$$
